assaySummary: NCI Yeast Anticancer Drug Screen. Data for the rad50 strain (AID 155);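 further: 0% = growth of vehicle-only cultures of the same strain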
conditionsUsed: S. cerevisiae rad50 strain growth inhibition; at 5.0 µM (retest, dose inferred, filed as 0.5); hits give high values
This is part of a sample that, as a whole, favours compounds with a hit. Of some 79,000 tested, about 15% had one in any assay.
Below, each entry is listed alongside its reported growth inhibition.
assayReadout: growth inhibition (%)

[[record]]
compound = "CCOC(=O)CC1(C(=O)OCC)c2[nH]c3ccccc3c2CCN1Cc1ccccc1 (stereo unspecified)"
assayreadout = "growth inhibition"
unitstext = "%"
measuredresult = 50

[[record]]
compound = "COC1=C(OC)C(=O)C(Sc2ccc3ccccc3c2)=CC1=O"
assayreadout = "growth inhibition"
unitstext = "%"
measuredresult = 17

[[record]]
compound = "Cc1ccccc1N=C(NO)c1ccccc1"
assayreadout = "growth inhibition"
unitstext = "%"
measuredresult = -141

[[record]]
compound = "CCCCCCC(O)CNCc1ccnc2ccc(OC)cc12 (stereo unspecified)"
assayreadout = "growth inhibition"
unitstext = "%"
measuredresult = 8

[[record]]
compound = "O=P(NC1CCCCC1)(OCc1ccccc1)OCc1ccccc1"
assayreadout = "growth inhibition"
unitstext = "%"
measuredresult = 8

[[record]]
compound = "C=C1CCC(O)C/C1=C/C=C1\\CCCC2(C)C1CCC2C(C)CCCC(C)C (stereo unspecified)"
assayreadout = "growth inhibition"
unitstext = "%"
measuredresult = 13

[[record]]
compound = "Clc1ccc2c(c1)N(CCCN1CCCC13CCCCC3)c1ccccc1S2"
assayreadout = "growth inhibition"
unitstext = "%"
measuredresult = 3

[[record]]
compound = "Nc1n[n+]([O-])c2ccc(Cl)cc2[n+]1[O-]"
assayreadout = "growth inhibition"
unitstext = "%"
measuredresult = 65

[[record]]
compound = "COc1cc(/C=C2\\CCC/C(=C\\c3ccc(O)c(OC)c3)C2=O)ccc1O"
assayreadout = "growth inhibition"
unitstext = "%"
measuredresult = 13

[[record]]
compound = "O=C1C=C(Cl)C(=O)C(c2ccc(Cl)cc2)=C1"
assayreadout = "growth inhibition"
unitstext = "%"
measuredresult = 21

[[record]]
compound = "COc1ccc(C/C=N/Nc2ccc([N+](=O)[O-])cc2)cc1OC"
assayreadout = "growth inhibition"
unitstext = "%"
measuredresult = 9


The measured values listed here are drawn from PubChem BioAssay (NCI).
